Sourced from patent US20250188079A1

- testSystem: CBP (Homo sapiens (Human), UniProt Q92793)
- Sequence (Q92793 1085-1192): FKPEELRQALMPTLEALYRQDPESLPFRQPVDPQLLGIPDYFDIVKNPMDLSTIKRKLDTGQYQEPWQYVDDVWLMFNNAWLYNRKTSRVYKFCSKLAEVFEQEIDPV
- testMethodNotes: HTRF biochemical assay for CBP activity (TR-FRET, bromodomain)
- Type: binding
- conditionsUsed: geometric mean, 10-point 3-fold dilution 33 μM to 1.7 nM, read-out: BROMO IC50 TRF TB CBP (μM gmean)
readoutType: IC50

The reported IC50 of the compound COC(=O)N1CCc2ccc3c(nc(C4CCC(C(=O)O)CC4)n3[C@H](C)C[C@]3(C)CC[C@H](OC)CC3)c2C1 (stereo partly shown) [Compound 175] was 0.01 to 0.1 µM

The reported IC50 of the compound COC(=O)N1CCc2ccc3c(nc(-c4ccncc4)n3[C@@H](C)Cc3ccccc3)c2C1 [Compound 109] was 0.001 to 0.01 µM

The reported IC50 of the compound COC(=O)N1CCc2ccc3c(nc([C@@H]4CCC[C@H](C(=O)O)C4)n3[C@@H](C)Cc3ccccc3)c2C1 (single isomer, unassigned) [Compound 203] was 0.01 to 0.1 µM

The reported IC50 of the compound COC(=O)N1CCc2ccc3c(nc([C@H]4CC[C@H](C(=O)O)CC4)n3[C@H](C)[C@H](O)c3ccccc3)c2C1 [Compound 276] was 0.01 to 0.1 µM

----------
- testSystem: CBP (Homo sapiens (Human), UniProt Q92793)
- testMethodNotes: HTRF biochemical assay for CBP activity (TR-FRET, bromodomain)
- Assay type: binding
- conditionsUsed: geometric mean, 10-point 3-fold dilution 33 μM to 1.7 nM, read-out: BROMO IC50 TRF TB CBP (μM gmean)
- Description: Example 1: HTRF Biochemical Assay for CBP Activity The assay was performed in a final volume of 6 μL in assay buffer containing 50 mM Hepes (pH 7.5, (0.5M Hepes, pH 7.5 solution; Teknova H1575)), 0.5 mM GSH, 0.01% BGG (0.22 p M filtered, Sigma, G7516-25G), 0.005% BSA (0.22 μM filtered, EMD Millipore Corporation, 126575) and 0.01% Triton X-100 (Sigma, T9284-10L). […]
readoutType: IC50

The reported IC50 of the molecule COC(=O)N1CCc2ccc3c(nc(C4CCN(S(C)(=O)=O)CC4)n3[C@H](C)Cn3cc(Cl)cn3)c2C1 was 0.001 to 0.01 µM

The reported IC50 of the molecule COC(=O)N1CCc2ccc3c(nc([C@H]4CCC[C@H](C(=O)O)C4)n3Cc3cccc(OC)n3)c2C1 was 0.01 to 0.1 µM

The reported IC50 of the molecule COC(=O)N1CCc2ccc3c(nc([C@H]4CC[C@H](S(=O)(=O)NC(C)=O)CC4)n3[C@@H](C)Cc3ccccc3)c2C1 was 0.001 to 0.01 µM

The reported IC50 of the molecule COC(=O)N1CCc2ccc3c(nc(C45CC(C(=O)O)(C4)C5)n3[C@@H](C)Cc3ccccc3)c2C1 was 0.001 to 0.01 µM

The reported IC50 of the molecule COC(=O)N1CCc2ccc3c(nc([C@H]4CC[C@@H](C(=O)O)CC4)n3CC(NC(C)=O)c3ccccc3)c2C1 (stereo partly shown) was 0.01 to 0.1 µM

The reported IC50 of the molecule COC(=O)N1CCc2ccc3c(nc([C@H]4CC[C@H](OC)CC4)n3C[C@H](C(=O)O)c3ccccc3)c2C1 was 0.001 to 0.01 µM

The reported IC50 of the molecule COC(=O)N1CCc2ccc3c(nc([C@H]4CC[C@H](C(=O)O)CC4)n3[C@H](C)C[C@H]3CCCOC3)c2C1 was 0.01 to 0.1 µM

The reported IC50 of the molecule COC(=O)N1CCc2ccc3c(nc([C@H]4CC[C@@H](OC)CC4)n3C[C@@H](C(=O)O)c3ccccc3)c2C1 was 0.001 to 0.01 µM

The reported IC50 of the molecule COC(=O)N1CCc2ccc3c(nc(C4CCCCC4)n3C[C@H]3CCCC[C@@H]3C(=O)O)c2C1 was 0.01 to 0.1 µM

The reported IC50 of the molecule COC(=O)N1CCc2ccc3c(nc(N4CCC(C(=O)O)CC4)n3[C@@H](C)Cn3cc(Cl)cn3)c2C1 was 0.001 to 0.01 µM

The reported IC50 of the molecule COC(=O)N1CCc2ccc3c(nc(C4CCCCC4)n3CCc3ccc(OC)c(C(=O)O)c3)c2C1 was 0.01 to 0.1 µM

The reported IC50 of the molecule COC(=O)N1CCc2ccc3c(nc([C@H]4CC[C@H](C(=O)O)CC4)n3[C@@H](C)C[C@]3(C)CC[C@@H](OC)CC3)c2C1 was 0.01 to 0.1 µM

The reported IC50 of the molecule COC(=O)N1CCc2ccc3c(nc(C4CCN(S(N)(=O)=O)CC4)n3[C@H](C)Cc3ccccc3)c2C1 was 0.1 to 1 µM

The reported IC50 of the molecule COC(=O)N1Cc2c(ccc3c2nc(C2CCCCC2)n3CCc2ccccc2)CC1C (stereo not shown) was 0.01 to 0.1 µM

The reported IC50 of the molecule COC(=O)N1CCc2ccc3c(nc([C@H]4CC[C@H](C(=O)O)CC4)n3[C@@H](C)Cc3cccc(C)c3)c2C1 was 0.001 to 0.01 µM

The reported IC50 of the molecule COC(=O)N1CCc2ccc3c(nc([C@H]4CC[C@H](C(=O)O)CC4)n3[C@H](C)Cc3ccc4c(c3)CCO4)c2C1 was 0.1 to 1 µM

The reported IC50 of the molecule COC(=O)N1CCc2ccc3c(nc(N4CCC[C@H](C(=O)O)C4)n3[C@@H](C)Cc3ccccc3)c2C1 was 0.001 to 0.01 µM

The reported IC50 of the molecule COC(=O)N1CCc2ccc3c(nc(N4CCC(C(=O)O)CC4)n3[C@@H](C)Cc3cc(F)cc(F)c3)c2C1 was 0.001 to 0.01 µM

The reported IC50 of the molecule COC(=O)N1CCc2ccc3c(nc(N4CCC(C(=O)O)CC4)n3[C@H](C)Cn3cc(C(F)(F)F)cn3)c2C1 was 0.01 to 0.1 µM

The reported IC50 of the molecule COC(=O)N1CCc2ccc3c(nc([C@H]4CC[C@H](C(=O)O)CC4)n3CC(F)(F)c3ccccc3)c2C1 was 0.001 to 0.01 µM

The reported IC50 of the molecule COC(=O)N1CCc2ccc3c(nc(C4CCN(S(C)(=O)=O)CC4)n3[C@@H](C)Cc3ccccc3)c2C1 was 0.001 to 0.01 µM

The reported IC50 of the molecule COC(=O)N1CCc2ccc3c(nc([C@@H]4CCC[C@@H](C(=O)O)C4)n3CC[C@H]3CC[C@H](OC)CC3)c2C1 was 0.001 to 0.01 µM

The reported IC50 of the molecule COC(=O)N1CCc2ccc3c(nc([C@H]4CCC[C@@H](C(=O)O)C4)n3[C@H](C)Cc3ccccc3)c2C1 (single isomer, unassigned) was 0.001 to 0.01 µM

The reported IC50 of the molecule COC(=O)N1CCc2ccc3c(nc(C4CCCCC4)n3C[C@@H](C(=O)O)C3CCCCC3)c2C1 was 0.01 to 0.1 µM

The reported IC50 of the molecule COC(=O)N1CCc2c([C@H]3CCOC3)cc3c(nc(C4CCC(C(=O)O)CC4)n3[C@@H](C)Cc3ccccc3)c2C1 (stereo partly shown) was 0.01 to 0.1 µM

The reported IC50 of the molecule COC(=O)N1CCc2ccc3c(nc(C4CCCCC4)n3[C@@H](C)C[C@H]3CC[C@@H](C(=O)O)CC3)c2C1 was 0.01 to 0.1 µM

The reported IC50 of the molecule COC(=O)N1CCc2ccc3c(nc([C@H]4CC[C@](C)(C(=O)O)CC4)n3[C@H](CO)Cc3ccccc3)c2C1 was 0.001 to 0.01 µM

The reported IC50 of the molecule COC(=O)N1CCc2ccc3c(nc(C4CCC(C(=O)O)CC4)n3CCc3ccccc3)c2C1 (stereo not shown) was 0.001 to 0.01 µM
